# assay-protocol: Bioavailability was determined in rats at 10 mg/kg, p.o. dose
# Format: ADME, organism-based
# setup-conditions: rat, in vivo, po
experimental-endpoint: bioavailability (%)

molecular-string	experimental-endpoint	number
CCOc1ccc(-n2c(C)c3c(C)nnc(C)c3c2C)cc1	bioavailability	81

* * *

# Tested on: Rattus norvegicus
# assay-protocol: Time required by compound for reaching maximum plasma concentration was determined in rats at 10 mg/kg, p.o. dose
# Format: ADME, organism-based
# Design: dose 10 mg/kg, route oral
# setup-conditions: in vivo, po

molecular-string	T max / h
CCOc1ccc(-n2c(C)c3c(C)nnc(C)c3c2C)cc1	2.8
